- target-entity: human Claudin18.2 (human)
- measurement-notes: cell-based or functional assay
Here the recorded CDC % Relative activity is given for each entry.
Expressed in %, but write only the number.

Completed entries (count: 2):
binder	readout-label	unit-text	recorded-number
410D9G2 (antibody, V domains shown) VH: DVQLVESGGGLVQPGGSRKLSCAASGFTFSGFGMHWIRQTPEKGLEWVAYISSGSRPIYYADTVQGRFTISRDNPKNTLFLQMTSLRSEDTAMYFCARFYYGNSFDHWGQGTLVTVSS VL: DIVMTQSPSFLTVTAGEKVTMSCKSSQSLLNSGNQKNYLTWYQQKPGQPPKLLIYWASTRESGVPDRFTGSGSGTDFTLTISSVQAEDLALYYCQNAYSFPLTFGAGTKLELK	CDC % Relative activity	%	87.9
207F8G5 (antibody, V domains shown) VH: QAYLQQSGAELVRSGASVKMSCKASGFTFTSYNIHWVKQTPGQGLEWIGYISPGNGGSNYNLKFKDKATLTSATSSSTAYMQISSLTSEDSAVYFCATGRGFAYWGQGTLVTVSA VL: DIVMTQSPSSLTVTPGEKVTMSCKSSQSLFNSGNQKNYLIWYQQKPGQPPKLLIYRASTRDSGVPDRFTGSGSGTDFTLTISNVQAEDLAIYYCQNDYSYPLTFGAGTKLELK	CDC % Relative activity	%	627

input: # CDC % Relative activity lookup, item 265E6G2 (antibody, V domains shown) VH: QAYLQQSGAELVRSGASVKMSCKASGYTFTSYNMHWVKQTPGQGLEWIGYIYPGNGGTNYNQKFKGKATLTADTSSSTAYMQISSLTSEDSAVYFCARDYYGNSFAYWGQGTLVTVSA VL: DLVMTQSPSSLTVTAGEKVTMSCKSSQSLLNSGNQKNYLTWYQQKPGQPPKLLIYWASTRESGVPDRFTGSGSGTDFTLTISNIQAEDLAVYYCQNDYSYPLPFGAGTKLELR
output: 526
